target: Kv1.5 (Homo sapiens); construct: expressed in transfected cells; host or cells: HEK or LTK- cells; assay: Kv1.5 Patch Clamp EP; format: cell-based; details: 1.0 μM, single point; whole cell patch clamp, Kv1.5 stably over expressed in HEK or LTK- cells
Sequence (P22460 whole entry): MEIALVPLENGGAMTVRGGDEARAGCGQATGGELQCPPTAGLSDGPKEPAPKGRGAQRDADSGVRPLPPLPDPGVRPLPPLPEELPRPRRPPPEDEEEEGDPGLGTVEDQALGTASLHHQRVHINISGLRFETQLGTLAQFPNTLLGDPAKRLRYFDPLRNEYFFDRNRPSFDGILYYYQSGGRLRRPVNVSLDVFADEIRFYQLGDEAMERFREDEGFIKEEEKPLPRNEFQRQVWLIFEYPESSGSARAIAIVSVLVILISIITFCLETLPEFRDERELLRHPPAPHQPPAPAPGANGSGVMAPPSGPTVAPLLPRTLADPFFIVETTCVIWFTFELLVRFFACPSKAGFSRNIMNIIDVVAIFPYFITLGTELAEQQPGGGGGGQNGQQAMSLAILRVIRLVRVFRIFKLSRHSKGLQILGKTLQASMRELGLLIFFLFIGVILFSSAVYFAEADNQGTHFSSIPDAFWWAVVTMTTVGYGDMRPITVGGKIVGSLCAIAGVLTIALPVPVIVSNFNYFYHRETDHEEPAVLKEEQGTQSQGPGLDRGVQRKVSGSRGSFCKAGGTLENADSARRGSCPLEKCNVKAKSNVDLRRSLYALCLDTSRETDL
The threshold is inclusive: inhibition at 1 µM of exactly 70% counts as rule met; values below receive rule not met.

| MOLECULE | DISCRETE_LABEL |
| --- | --- |
| COc1ccc(CCN2C(=O)N(N3CCN(C(N)=O)CC3)CC2c2ccc(C(C)(C)C)cc2)cc1 (centres unmarked) [Compound 150] | rule not met |
| COc1ccc(CCN2C(=O)N(NS(N)(=O)=O)CC2c2ccc(C3CC3)cc2)cc1 (centres unmarked) [Compound 10] | rule met |
| COc1ccc(CCN2C(=O)N(N3CCCS3(=O)=O)CC2c2ccc(C3CC3)cc2)cc1 (centres unmarked) [Compound 124] | rule not met |
| COc1ccc(CCN2C(=O)N(N)CC2Cc2ccc(F)cc2)cc1 (centres unmarked) [Compound 129] | rule not met |
| COCCN(N1CC(c2ccc(C3CC3)cc2)N(CCc2ccc(OC)cc2)C1=O)S(C)(=O)=O (centres unmarked) [Compound 68] | rule not met |
| COc1ccc(CCN2C(=O)N(NS(=O)(=O)CC(N)=O)CC2c2ccc(C3CC3)cc2)cc1 (centres unmarked) [Compound 52] | rule met |
| COc1ccc(CCN2C(=O)N(NS(C)(=O)=O)C[C@H]2c2ccc(OC)cc2)cc1 [Compound 106] | rule met |

Just for reference, patent US7504517B2 is where these values come from.
